The reported measurements were obtained from paper PMC3336786.

- Tested System: RDLT6'V (Drosophila melanogaster, UniProt P25123, T305V)
- Sequence (P25123 45-606 T305V): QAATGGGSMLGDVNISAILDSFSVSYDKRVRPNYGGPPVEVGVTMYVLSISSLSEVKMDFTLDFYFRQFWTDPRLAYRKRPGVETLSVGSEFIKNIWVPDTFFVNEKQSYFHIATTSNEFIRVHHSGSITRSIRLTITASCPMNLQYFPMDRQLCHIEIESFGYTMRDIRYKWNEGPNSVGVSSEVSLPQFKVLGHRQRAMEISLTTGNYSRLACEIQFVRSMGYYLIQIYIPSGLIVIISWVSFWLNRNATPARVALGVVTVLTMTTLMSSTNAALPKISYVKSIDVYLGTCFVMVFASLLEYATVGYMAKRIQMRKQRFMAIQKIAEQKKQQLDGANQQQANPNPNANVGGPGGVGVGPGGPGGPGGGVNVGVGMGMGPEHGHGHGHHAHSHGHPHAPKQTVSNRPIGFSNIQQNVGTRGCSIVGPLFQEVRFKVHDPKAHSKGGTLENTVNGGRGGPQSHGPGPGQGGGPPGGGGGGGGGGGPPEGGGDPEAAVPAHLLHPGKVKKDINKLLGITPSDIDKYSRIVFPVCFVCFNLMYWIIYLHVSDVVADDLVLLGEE
- Method: Two-electrode voltage clamp of RDLT6'V mutant receptors in Xenopus oocytes
Reported Endpoint: IC50

Molecule: C[C@@H]1C(=O)O[C@H]2C[C@@]34[C@H]5C[C@@H](C(C)(C)C)[C@]36[C@@H](OC(=O)[C@@H]6O)O[C@@]4(C(=O)O5)[C@]21O [GA, ginkgolide A]
Tested System: RDLT6'V (Drosophila melanogaster, UniProt P25123, T305V)
Meas Value: > 1 mM

Lab note: next molecule to report on.
Would you mind telling me what IC50 value was observed for CC(C)(C)[C@]1(O)CC2OC(=O)CC23C(=O)OC2OC(=O)[C@H](O)C231 (some centres unmarked) [BB, bilobalide] ?
> 1 mM
